Test system: 898857-211-R-J1-PDC complex spheroids, growth % test/control
Test: Anticancer human tumor 898857-211-R-J1-PDC patient-derived melanoma cell line growth inhibition [RAS]
Settings: second compound 0.0949 µM; first compound 0.0316 µM; stronger effect = lower value
Result type: viability, T/C

Would you please look over these solved cases?
C=CC(=O)N1CCN(c2nc(OCC3CCCN3C)nc3c(F)c(-c4nc(N)cc(C)c4C(F)(F)F)c(Cl)cc23)C(C)C1 (centres undefined) + CCn1c(-c2cc(N3CCN(C)CC3)cnc2C(C)OC)c2c3cc(ccc31)-c1csc(n1)CC(NC(=O)C1CC1C)C(=O)N1CCCC(N1)C(=O)OCC(C)(C)C2
117%
Nc1ccn(C2OC(CO)C(O)C2(F)F)c(=O)n1 (centres undefined) + CCn1c(-c2cc(N3CCN(C)CC3)cnc2C(C)OC)c2c3cc(ccc31)-c1csc(n1)CC(NC(=O)C1CC1C)C(=O)N1CCCC(N1)C(=O)OCC(C)(C)C2
4.97%
CC(C)n1nc(-c2ccc3oc(N)nc3c2)c2c(N)ncnc21 + CCn1c(-c2cc(N3CCN(C)CC3)cnc2C(C)OC)c2c3cc(ccc31)-c1csc(n1)CC(NC(=O)C1CC1C)C(=O)N1CCCC(N1)C(=O)OCC(C)(C)C2
38.5%

Alright, here's another compound for you.
Input: Fill in: viability, T/C of O=C(c1ccc(F)c(F)c1Nc1ccc(I)cc1F)N1CC(O)([C@@H]2CCCCN2)C1 + CCn1c(-c2cccnc2C(C)OC)c2c3cc(ccc31)N1CCOC(CC(NC(=O)C(C(C)C)N(C)C(=O)C3(F)CCN(C(=O)C#CC(C)(C)N(C)C)CC3)C(=O)N3CCCC(N3)C(=O)OCC(C)(C)C2)C1 is ___
Output: 28.3%

* * *

Tested on: 898857-211-R-J1-PDC complex spheroids, growth % test/control
Assay: Anticancer human tumor 898857-211-R-J1-PDC cell line growth inhibition [RAS];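 further: spheroids exposed to compound for seven days before readout; 100% = DMSO vehicle control wells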
Conditions: second compound 0.1 µM; first compound 1 µM; stronger effect = lower value
Source text: RAS pathway inhibitors in Combinations in Complex Spheroids A high-throughput screen of multi-cell type tumor spheroids was designed to identify active combinations of RAS pathway inhibitors and targeted small molecules. Complex spheroids include a stromal component modeled by human endothelial cells (HUVEC) and fibroblasts modeled by human mesenchymal stem cells (MSCs). […] Compounds. […] If the clinical Cmax for an agent had not been determined, the highest concentration tested was 10 microM. […]
Hi! Could you tag entries with viability, T/C below 20% as true, and those at or above as false? Much appreciated.

Look over these answered cases.
C=CC(=O)Nc1cc(Nc2nccc(-c3cn(C)c4ccccc34)n2)c(OC)cc1N(C)CCN(C)C + C#Cc1c(F)ccc2cc(O)cc(-c3ncc4c(N5CC6CCC(C5)N6)nc(OCC56CCCN5CC(F)C6)nc4c3F)c12
false
CCC(CC)c1cc(NC2CCC(N)C2)n2nccc2n1 (stereo unspecified) + C#Cc1c(F)ccc2cc(O)cc(-c3ncc4c(N5CC6CCC(C5)N6)nc(OCC56CCCN5CC(F)C6)nc4c3F)c12
false
CC(Nc1ccc2c(c1)OCCn1cc(N3C(=O)OCC3C(F)F)nc1-2)C(N)=O (stereo unspecified) + C=CC(=O)N1CCN(c2nc(OCC3CCCN3C)nc3c(F)c(-c4nc(N)cc(C)c4C(F)(F)F)c(Cl)cc23)C(C)C1
false

Input: viability, T/C under 20%? Item: CC(=O)OC12COC1CC(O)C1(C)C(=O)C(O)C3=C(C)C(OC(=O)C(O)C(NC(=O)OC(C)(C)C)c4ccccc4)CC(O)(C(OC(=O)c4ccccc4)C21)C3(C)C (stereo unspecified) + C=CC(=O)N1CCN(c2nc(OCC3CCCN3C)nc3c(F)c(-c4nc(N)cc(C)c4C(F)(F)F)c(Cl)cc23)C(C)C1
Output: true

Input: Now consider CC(=O)OC12COC1CC(O)C1(C)C(=O)C(O)C3=C(C)C(OC(=O)C(O)C(NC(=O)OC(C)(C)C)c4ccccc4)CC(O)(C(OC(=O)c4ccccc4)C21)C3(C)C (stereo unspecified) + C#Cc1c(F)ccc2cc(O)cc(-c3ncc4c(N5CC6CCC(C5)N6)nc(OCC56CCCN5CC(F)C6)nc4c3F)c12 .
Output: true

Input: Now consider Nc1ccn(C2OC(CO)C(O)C2(F)F)c(=O)n1 (stereo unspecified) + C=CC(=O)N1CCN(c2nc(OCC3CCCN3C)nc3c(F)c(-c4nc(N)cc(C)c4C(F)(F)F)c(Cl)cc23)C(C)C1 .
Output: true
